biological target: human Factor IXa (human, UniProt P00740 47-191; P00740 227-461); assay: cell-based or functional assay
Square brackets hold non-standard residues; d marks the D form. Ends that are not written are not given here.
Assign EC50 [µM], FXa generation assay to each entry below.

query: Tell me the measured EC50 [µM], FXa generation assay of "CRRAPGKLQCLASYCWLFWTGIAC" , please.
result: > 1 µM

query: Tell me the measured EC50 [µM], FXa generation assay of "SKQGRPISPDRRAAGKLTCLASYCWLFGSGISLSRAPESAAP" , please.
result: > 10 µM

query: Tell me the measured EC50 [µM], FXa generation assay of RRAPGKLTCLASY[dC]WLFWTGIA (not fully specified (C-terminus, bridges); printed as RRAPGKLTCLASYcWLFWTGIA; cysteine pairing not given here) [RRAPGKLTCLASYcWLFWTGIA] , please.
result: > 1 µM
